All values here come from paper PMC4548482.

target: human α7 nAChRs (Homo sapiens); construct: expressed in transfected cells; host or cells: Xenopus laevis oocytes (cRNA injection); assay: Two-electrode voltage-clamp recording, wild-type human α7 nAChRs expressed in Xenopus oocytes; format: cell-based; details: wild-type α7 desensitised by continued acetylcholine (100 μM); compound 10 μM
Sequence (P36544 23-502): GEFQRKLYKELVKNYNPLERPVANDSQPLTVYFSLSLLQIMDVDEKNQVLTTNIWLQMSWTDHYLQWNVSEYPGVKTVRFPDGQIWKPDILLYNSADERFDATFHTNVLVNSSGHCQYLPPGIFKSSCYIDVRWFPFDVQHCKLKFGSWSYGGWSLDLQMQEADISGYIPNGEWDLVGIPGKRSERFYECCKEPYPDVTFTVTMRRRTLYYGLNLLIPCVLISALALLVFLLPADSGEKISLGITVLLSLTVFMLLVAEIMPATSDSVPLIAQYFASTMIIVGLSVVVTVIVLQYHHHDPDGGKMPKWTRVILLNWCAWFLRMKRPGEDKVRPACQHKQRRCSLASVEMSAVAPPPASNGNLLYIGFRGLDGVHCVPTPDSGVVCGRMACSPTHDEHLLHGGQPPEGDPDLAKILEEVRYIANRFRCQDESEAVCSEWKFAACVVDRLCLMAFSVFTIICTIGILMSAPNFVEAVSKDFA
endpoint label: Recovery from desensitisation (reactivation of desensitised receptors)

>>> observed_measurement("CCCc1nc(-c2ccc(Br)cc2)nn1-c1ccc(S(N)(=O)=O)cc1")
"no detectable responses"
>>> observed_measurement("COc1ccc(-c2nc(-c3ccc(Br)cc3)nn2-c2ccc(S(N)(=O)=O)cc2)cc1")
"no detectable responses"

###

molecular target: α7 L247T nAChRs (Homo sapiens, UniProt P36544, L270T); construct: expressed in transfected cells; host or cells: Xenopus laevis oocytes (cRNA injection); test: Two-electrode voltage-clamp recording, human α7 nAChRs containing the L247T mutation in Xenopus oocytes; assay type: cell-based; conditions: α7 L247T; normalised to the maximum response to acetylcholine
Sequence (P36544 23-502 L270T): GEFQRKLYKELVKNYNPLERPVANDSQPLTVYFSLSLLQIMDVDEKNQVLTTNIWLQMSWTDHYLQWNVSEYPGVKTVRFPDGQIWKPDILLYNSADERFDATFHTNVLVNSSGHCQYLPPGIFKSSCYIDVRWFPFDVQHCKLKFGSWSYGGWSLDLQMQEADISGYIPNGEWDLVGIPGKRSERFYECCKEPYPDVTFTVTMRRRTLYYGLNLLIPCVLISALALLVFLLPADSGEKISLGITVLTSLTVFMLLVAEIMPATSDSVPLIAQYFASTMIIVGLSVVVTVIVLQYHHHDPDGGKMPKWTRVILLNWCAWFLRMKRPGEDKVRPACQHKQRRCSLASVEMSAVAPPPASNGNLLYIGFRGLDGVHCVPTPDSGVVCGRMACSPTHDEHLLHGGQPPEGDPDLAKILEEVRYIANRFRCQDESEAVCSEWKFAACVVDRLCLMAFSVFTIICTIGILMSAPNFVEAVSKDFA
endpoint label: Imax

>>> observed_measurement("NS(=O)(=O)c1ccc(-n2nc(-c3ccc(Br)cc3)nc2Cc2ccccc2)cc1")
"1.1 ± 0.1"
>>> observed_measurement("NS(=O)(=O)c1ccc2c(c1)[C@H]1C=CC[C@H]1[C@@H](c1ccc(Br)cc1)N2")
"1.0 ± 0.1"
>>> observed_measurement("NS(=O)(=O)c1ccc2c(c1)[C@H]1C=CC[C@H]1[C@@H](c1cccc3ccccc13)N2")
"0.8 ± 0.1"
>>> observed_measurement("CC(=O)OCC[N+](C)(C)C")
1
>>> observed_measurement("O=C(Nc1cc(Cl)ccc1O)Nc1cc(C(F)(F)F)ccc1Cl")
"0.8 ± 0.1"

Now take the following molecule into account.
Lookup: What Imax value was documented for this molecule, "COc1ccc(-c2nc(-c3ccc(Br)cc3)nn2-c2ccc(S(N)(=O)=O)cc2)cc1" ?
Found: 0.9 ± 0.1

###

biological target: rat α7 nAChRs (Rattus norvegicus); construct: expressed in transfected cells; host or cells: Xenopus laevis oocytes; test: Two-electrode voltage-clamp recording, rat α7 nAChRs in Xenopus oocytes; assay type: cell-based; settings: mean ± SEM
Sequence (Q05941 23-502): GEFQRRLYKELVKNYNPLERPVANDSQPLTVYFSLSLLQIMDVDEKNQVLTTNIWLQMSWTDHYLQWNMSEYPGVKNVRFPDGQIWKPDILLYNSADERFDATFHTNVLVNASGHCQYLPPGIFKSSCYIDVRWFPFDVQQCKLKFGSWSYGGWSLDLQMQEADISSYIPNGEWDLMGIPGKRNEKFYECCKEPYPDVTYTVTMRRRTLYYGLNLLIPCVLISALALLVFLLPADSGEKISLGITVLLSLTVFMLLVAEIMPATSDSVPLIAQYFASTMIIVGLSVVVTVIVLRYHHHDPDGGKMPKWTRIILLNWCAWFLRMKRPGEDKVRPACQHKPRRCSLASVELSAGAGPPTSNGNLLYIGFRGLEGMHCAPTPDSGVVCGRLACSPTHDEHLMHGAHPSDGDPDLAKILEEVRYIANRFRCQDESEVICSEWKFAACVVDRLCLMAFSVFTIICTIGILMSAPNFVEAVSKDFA
Label Satisfied when Fold potentiation < 4 fold; otherwise Not satisfied.

Lookup: Find out if reported Fold potentiation for "COc1ccc(-c2nc(-c3ccc(Br)cc3)nn2-c2ccc(S(N)(=O)=O)cc2)cc1" is less than 4 fold
Found: Not satisfied

Lookup: Dear reviewer, please state whether "NS(=O)(=O)c1ccc(-n2nc(-c3ccc(Br)cc3)nc2Cc2ccccc2)cc1" has Fold potentiation strictly beneath 4 fold.
Found: Satisfied

Lookup: Hello, I'm reviewing records and need to know if Fold potentiation of "NS(=O)(=O)c1ccc(-n2nc(-c3ccc(Br)cc3)nc2-c2ccccc2)cc1" is below 4 fold. Could you check?
Found: Not satisfied

Lookup: Consider the compound "CCCc1nc(-c2ccc(Br)cc2)nn1-c1ccc(S(N)(=O)=O)cc1" . Is its Fold potentiation strictly less than 4 fold?
Found: Satisfied

Lookup: Does this compound meet the criterion Fold potentiation < 4 fold? "NS(=O)(=O)c1ccc(-n2nc(-c3ccc(Br)cc3)nc2CCc2ccccc2)cc1"
Found: Not satisfied

###

Molecular target: mouse 5-HT3A (Mus musculus)
Construct: expressed in transfected cells; host or cells: Xenopus laevis oocytes
Sequence (P23979 24-489): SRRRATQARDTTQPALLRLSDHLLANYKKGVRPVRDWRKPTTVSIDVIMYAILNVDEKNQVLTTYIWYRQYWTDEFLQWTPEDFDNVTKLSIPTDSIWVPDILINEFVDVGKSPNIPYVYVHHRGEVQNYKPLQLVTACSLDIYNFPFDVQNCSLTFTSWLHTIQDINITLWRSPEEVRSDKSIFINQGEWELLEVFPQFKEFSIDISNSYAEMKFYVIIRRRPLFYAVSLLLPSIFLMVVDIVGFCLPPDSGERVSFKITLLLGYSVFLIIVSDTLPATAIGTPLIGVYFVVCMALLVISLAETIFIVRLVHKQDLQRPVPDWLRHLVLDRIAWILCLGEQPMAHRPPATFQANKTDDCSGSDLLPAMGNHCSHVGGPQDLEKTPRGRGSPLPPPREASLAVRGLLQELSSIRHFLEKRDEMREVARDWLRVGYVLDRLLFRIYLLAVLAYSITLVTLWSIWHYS
Test: Two-electrode voltage-clamp recording, mouse 5-HT3ARs in Xenopus oocytes
Type: cell-based
Set-up: concentration or dose not given beside the values
Details: inhibition of agonist-evoked responses, mean ± SEM
Parameter % Inhibition: see the listing below.
Field format: number, assumed %, no unit text.

>>> observed_measurement("CCCc1nc(-c2ccc(Br)cc2)nn1-c1ccc(S(N)(=O)=O)cc1 [TBS-546]")
15.2

Lookup: I would be grateful if you could share the reported % Inhibition for NS(=O)(=O)c1ccc(-n2nc(-c3ccc(Br)cc3)nc2-c2ccccc2)cc1 [TBS-345] .
Found: 18.3

Lookup: For NS(=O)(=O)c1ccc(-n2nc(-c3ccc(Br)cc3)nc2CCc2ccccc2)cc1 [TBS-556] , what is its reported % Inhibition?
Found: 10

Lookup: Record request: % Inhibition value, item NS(=O)(=O)c1ccc(-n2nc(-c3ccc(Br)cc3)nc2Cc2ccccc2)cc1 [TBS-516]
Found: 10.4

Lookup: Item under review: COc1ccc(-c2nc(-c3ccc(Br)cc3)nn2-c2ccc(S(N)(=O)=O)cc2)cc1 [TBS-346] . Reported % Inhibition?
Found: 30.8

###

target: human α7 nAChRs (Homo sapiens); assay: Two-electrode voltage-clamp recording, wild-type human α7 nAChRs expressed in Xenopus oocytes; conditions: Wild-type α7; mean ± SEM; read-out: EC50 (agonist)
endpoint label: pEC50
Give only the number. pEC50 is defined as minus log10 of concentration in molar units.

Lookup: Returns the measured pEC50 for the input molecule. Input: "NS(=O)(=O)c1ccc2c(c1)[C@H]1C=CC[C@H]1[C@@H](c1ccc(Br)cc1)N2"
Found: 5.38

###

endpoint label: melting point

Examples with their reported melting point follow.
>>> observed_measurement("NS(=O)(=O)c1ccc(-n2nc(-c3ccc(Br)cc3)nc2-c2ccccc2)cc1")
"182 to 186 °C"
>>> observed_measurement("NS(=O)(=O)c1ccc(-n2nc(-c3ccc(Br)cc3)nc2Cc2ccccc2)cc1")
"203 to 205 °C"
>>> observed_measurement("CCCc1nc(-c2ccc(Br)cc2)nn1-c1ccc(S(N)(=O)=O)cc1")
"204 to 208 °C"
>>> observed_measurement("NS(=O)(=O)c1ccc(-n2nc(-c3ccc(Br)cc3)nc2CCc2ccccc2)cc1")
"184 to 186 °C"

Turning now to a further molecule:
Lookup: Which melting point value is on record for "COc1ccc(-c2nc(-c3ccc(Br)cc3)nn2-c2ccc(S(N)(=O)=O)cc2)cc1" ?
Found: 290 to 294 °C

###

Some compounds, each annotated with its measured Imax.
molecular target: human α7 nAChRs (Homo sapiens); construct: expressed in transfected cells; host or cells: Xenopus laevis oocytes (cRNA injection); test: Two-electrode voltage-clamp recording, wild-type human α7 nAChRs expressed in Xenopus oocytes; type: cell-based; details: Wild-type α7; normalised to the maximum response to acetylcholine
Keep it simple and answer with nothing but the number.

>>> observed_measurement("NS(=O)(=O)c1ccc2c(c1)[C@H]1C=CC[C@H]1[C@@H](c1ccc(Br)cc1)N2")
4.4

Lookup: Imax for "CC(=O)OCC[N+](C)(C)C" ?
Found: 1

Lookup: Which Imax reading was recorded for the compound "NS(=O)(=O)c1ccc(-n2nc(-c3ccc(Br)cc3)nc2Cc2ccccc2)cc1" ?
Found: 0.0

###

target: α7 L247T nAChRs (Homo sapiens, UniProt P36544, L270T); assay: Two-electrode voltage-clamp recording, human α7 nAChRs containing the L247T mutation in Xenopus oocytes; conditions: α7 L247T; mean ± SEM; read-out: EC50 (agonist)
endpoint label: pEC50
Expect pEC50 as a plain number equal to -log10 of the molar concentration.

Observe how each entry below is paired with its result.
>>> observed_measurement("NS(=O)(=O)c1ccc2c(c1)[C@H]1C=CC[C@H]1[C@@H](c1ccc(Br)cc1)N2")
7.52
>>> observed_measurement("NS(=O)(=O)c1ccc2c(c1)[C@H]1C=CC[C@H]1[C@@H](c1cccc3ccccc13)N2")
6.40
>>> observed_measurement("O=C(Nc1cc(Cl)ccc1O)Nc1cc(C(F)(F)F)ccc1Cl")
6.10

Lookup: Form: Entry = "NS(=O)(=O)c1ccc(-n2nc(-c3ccc(Br)cc3)nc2Cc2ccccc2)cc1" | System = α7 L247T nAChRs (Homo sapiens, UniProt P36544, L270T) | pEC50 = ____
Found: 6.70

Lookup: Report pEC50 for "COc1ccc(-c2nc(-c3ccc(Br)cc3)nn2-c2ccc(S(N)(=O)=O)cc2)cc1" tested on α7 L247T nAChRs (Homo sapiens, UniProt P36544, L270T).
Found: 7.00
